TEST DETAILS: NCI Yeast Anticancer Drug Screen. Data for the rad52 strain (AID 147);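 further: 0% = growth of vehicle-treated control cultures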
MEASUREMENT PARAMETERS: S. cerevisiae rad52 mutant growth inhibition; at 1.2 µM; active compounds read high
About 79,000 compounds went through this panel and 15% of them were active in at least one assay; those are over-represented in the sample as a whole.
METRIC NAME: growth inhibition (%)
Express the result in % but write the number alone.

The following molecules have reported results that may help.
MOLECULE	RECORDED MEASUREMENT
O=C(O)/C=C\C(=O)Nc1ccc2c(c1)Cc1cc(Cl)ccc1-2	-3
CCC(=O)C1=C(O)c2cc(OC)ccc2CC1C(=O)OC (stereo not drawn)	-1
COc1ccccc1NC(=O)c1ccc(Cl)cc1	0

Data point: "COc1ccc(N=c2cc(-c3ccccc3)oc3ccccc23)cc1" ; growth inhibition = 1

Data point: "O=C(Oc1ccc([N+](=O)[O-])cc1)c1ccc([N+](=O)[O-])cc1" ; growth inhibition = 7

Data point: CC(CC/C(=N/O)c1ccccc1)(CC/C(=N\O)c1ccccc1)[N+](=O)[O-] (stereo not drawn) ; growth inhibition = 1

Data point: "O=C1c2ccccc2-c2cc3ccccc3c(=O)n21" ; growth inhibition = 32

Data point: "CCCCCCCCCCCCCCCCCCNC(=S)/N=C/c1c(O)c2ccccc2[nH]c1=O" ; growth inhibition = 7

Data point: CCC[CH2][Ge]([CH2]CCC)([CH2]CCC)[O]C(=O)C(O)c1ccccc1 (stereo not drawn) ; growth inhibition = 1

Data point: "Oc1ccc(C2(c3ccc(O)cc3)CCCC2)cc1" ; growth inhibition = -31
